The reported measurements were obtained from patent US7211572B2.

- target_or_system: HIV integrase (Human immunodeficiency virus type 1 group M subtype B, UniProt P12497, F1332H)
- Construct: HIV integrase full length gene
- protocol_summary: Determination of enzyme (HIV integrase) inhibitory activity
- setup_conditions: recombinant HIV integrase (F185H), strand transfer ELISA, absorbance at 450 nm
- Procedure: The following explains evaluation methods of the HIV integrase inhibitory activity of the compound of the present invention. (i) Construction of Recombinant Integrase Gene Expression System […] A peroxidase color solution (Bio Rad, 100 μl) was added and allowed to react at room temperature for 4 min. […] The absorbance at 450 nm was measured. […]
pIC50: −log10 of the molar value. Structures can show the parent of a compound that is named as a salt.
experimental_endpoint: pIC50

Lab note: measured pIC50 of CS(=O)(=O)CCC1CN(Cc2ccc(Cl)c(Cl)c2)C(=O)c2c(O)c(=O)ccn21 (stereo not drawn) [Example 32] was 7.00 to 8.00

Lab note: measured pIC50 of CC(C)(C)C(=O)Cc1c(C(=O)C(C)(C)C)c(=O)c(O)c2n1CCN(Cc1ccc(F)cc1)C2=O [Example 427, hydrochloride] was 7.00 to 8.00

Lab note: measured pIC50 of O=C1c2c(O)c(=O)c(-c3nccs3)cn2CCN1Cc1ccccc1F [Example 307] was 6.00 to 7.00

Lab note: measured pIC50 of CSc1cn2ccn(Cc3cccc(Cl)c3)c(=O)c2c(O)c1=O [Example 245] was 7.00 to 8.00

Lab note: measured pIC50 of CC(=O)Nc1cn2c(c(O)c1=O)C(=O)N(Cc1cccc(Cl)c1F)CC2 [Example 332] was 7.00 to 8.00

Lab note: measured pIC50 of O=C(NCc1ccccc1F)c1cn2c(c(O)c1=O)C(=O)N(Cc1ccc(F)cc1)CC2 [Example 377] was > 8.00
